# variant/HC_D62R values compiled below
- subject_of_test: T1, mouse tissue factor pathway inhibitor (TFPI) (mouse, UniProt O54819 29-289, limits assumed)
- T1 construct: bought; also called mTFPI; murine TFPI
- T1 sequence (looked up): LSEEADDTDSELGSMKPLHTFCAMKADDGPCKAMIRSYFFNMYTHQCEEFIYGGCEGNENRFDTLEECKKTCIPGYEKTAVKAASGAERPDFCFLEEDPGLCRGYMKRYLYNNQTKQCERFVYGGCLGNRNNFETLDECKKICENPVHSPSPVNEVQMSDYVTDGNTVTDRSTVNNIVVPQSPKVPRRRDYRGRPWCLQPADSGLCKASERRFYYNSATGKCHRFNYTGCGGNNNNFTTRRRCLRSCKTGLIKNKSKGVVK
- method_notes: competitive ELISA

# binder, unit_descriptor, variant/HC_D62R
rows = [
    ("4B7 HC Q1E+N32D+D62R+Y112D/LC S32R+D33F+N35I+D97T (Fab, V domains shown) VH: EVQLQQSGPGLVKPSQTLSLTCAISGDSVSSDSAAWSWIRQSPGRGLEWLGIIYKRSKWYNRYAVSVKSRITINPDTSKNQFSLQLNSVTPEDTAVYYCARWHSDKHWGFDDWGQGTLVTVSS VL: DIVMTQSPLSLPVTPGEPASISCRSSQSLVFRFGITYLNWYLQKPGQSPQLLIYKGSNRASGVPDRFSGSGSGTDFTLKISRVEAEDVGVYYCQQYTSYPLTFGQGTKVEIKR", "ratio", 39.8),
    ("4B7 HC N32D+D62Q+Y112D/LC S32R+D33R+N35I+D97T (Fab, V domains shown) VH: QVQLQQSGPGLVKPSQTLSLTCAISGDSVSSDSAAWSWIRQSPGRGLEWLGIIYKRSKWYNQYAVSVKSRITINPDTSKNQFSLQLNSVTPEDTAVYYCARWHSDKHWGFDDWGQGTLVTVSS VL: DIVMTQSPLSLPVTPGEPASISCRSSQSLVFRRGITYLNWYLQKPGQSPQLLIYKGSNRASGVPDRFSGSGSGTDFTLKISRVEAEDVGVYYCQQYTSYPLTFGQGTKVEIKR", "ratio", 13.4),
]
